Numbers sourced from ChEMBL document CHEMBL4177759.

# ASSAY_TEXT: Cmax in Beagle dog at […], po measured at 2 hrs by LC-MS/MS method
# Format: ADME, organism-based, Canis lupus familiaris
# Parameters: dose 2.5 mg/kg, route oral
# CONDITION_PARAMETERS: in vivo
ASSAY_ENDPOINT: Cmax at 2 h (nM)
Answers are plain numbers, in nM.

Request: Item under review: COC(=O)Nc1nc2ccc(C(=O)c3ccccc3)cc2[nH]1 [MEBENDAZOLE] . Reported Cmax at 2 h?
Response: 200

----------
# ASSAY_TEXT: Volume of distribution in Beagle dog at 0.3 mg/kg, iv by LC-MS/MS method
# Type: ADME, organism-based, Canis lupus familiaris
# CONDITION_PARAMETERS: in vivo
ASSAY_ENDPOINT: Vd (L/kg)
Numbers only, in L/kg.

Request: Item under review: "COC(=O)Nc1nc2ccc(C(=O)c3ccccc3)cc2[nH]1" . Reported Vd?
Response: 1.3

----------
# ASSAY_TEXT: Oral bioavailability in human at 1.18 ug
# Assay type: ADME, organism-based
# CONDITION_PARAMETERS: in vivo
ASSAY_ENDPOINT: bioavailability
Answer format reminder: number followed by unit.

Request: Item under review: "COC(=O)Nc1nc2ccc(C(=O)c3ccccc3)cc2[nH]1" . Reported bioavailability?
Response: 22%

----------
# ASSAY_TEXT: Volume of distribution in CD1 mouse at 1.5 mg/kg, iv by LC-MS/MS method
# Type: ADME, organism-based
# CONDITION_PARAMETERS: in vivo
ASSAY_ENDPOINT: Vd (L/kg)
Give bare numbers, in L/kg.

Request: Item under review: "COC(=O)Nc1nc2ccc(C(=O)c3ccccc3)cc2[nH]1" . Reported Vd?
Response: 1.4

----------
# ASSAY_TEXT: Clearance in Beagle dog at 0.3 mg/kg, iv by LC-MS/MS method
# Format: ADME, organism-based, Canis lupus familiaris
# CONDITION_PARAMETERS: in vivo
ASSAY_ENDPOINT: clearance (mL/min/kg)
One number for each entry, in mL/min/kg.

Request: Item under review: "COC(=O)Nc1nc2ccc(C(=O)c3ccccc3)cc2[nH]1" . Reported clearance?
Response: 22.2

----------
# ASSAY_TEXT: Tmax in CD1 mouse plasma at 30 mg/kg administered via oral gavage by LC-MS/MS method
# Assay type: ADME, organism-based
ASSAY_ENDPOINT: Tmax (h)
Answers are plain numbers, in h.

Request: Item under review: COC(=O)Nc1nc2ccc(C(=O)c3ccccc3)cc2[nH]1 [MEBENDAZOLE] . Reported Tmax?
Response: 1

----------
# ASSAY_TEXT: Prodrug conversion in mouse liver microsomes assessed as mebendazole formation by measuring remaining parent drug at 10 uM measured at 60 mins by LC-MS/MS method
# Type: ADME, microsome
# CONDITION_PARAMETERS: 1 h
ASSAY_ENDPOINT: Stability (%)
Numbers only, in %.

Worked examples follow.
COMPOUND | DATA_VALUE
COC(=O)Nc1nc2ccc(C(=O)c3ccccc3)cc2[nH]1 [MEBENDAZOLE] | 100
COC(=O)Nc1nc2cc(C(=O)c3ccccc3)ccc2n1COC(=O)CCC(=O)O | 24
COC(=O)Nc1nc2cc(C(=O)c3ccccc3)ccc2n1COP(=O)(O)OCOC(=O)OC(C)C | 14

Record Stability per entry; entries follow.
1. COC(=O)Nc1nc2cc(C(=O)c3ccccc3)ccc2n1COC(=O)CNC(=O)[C@H](CC(C)C)NC(C)=O
2. COC(=O)Nc1nc2cc(C(=O)c3ccccc3)ccc2n1COP(=O)(O)O
3. COC(=O)Nc1nc2cc(C(=O)c3ccccc3)ccc2n1COC(=O)OC[C@H]1OC(O)[C@H](O)[C@@H](O)[C@@H]1O (stereo partly specified)

Response:
[29, 100, 27]
